runDescription: Stability tests in aqueous buffer solutions
Type: physicochemical
conditionSummary: aqueous buffer pH 2.5, 24 h at 37° C.
reportedEndpoint: Stability at pH 2.5

>  <molecule>
Cc1cc2c(cc1C(=O)COC1CCC3(CCC(C)CC3)O1)C(C)(C)CC(C)C2(C)C (stereo not drawn)

>  <Stability at pH 2.5>
stable

$$$$
>  <molecule>
C/C=C/CCC1CCCC(OCC(=O)c2cc3c(cc2C)C(C)(C)C(C)CC3(C)C)O1 (stereo not drawn)

>  <Stability at pH 2.5>
stable

$$$$
>  <molecule>
CCCCCCCC1CCC(OCC(=O)c2ccc(OC)cc2)O1 (stereo not drawn)

>  <Stability at pH 2.5>
unstable

$$$$
>  <molecule>
C/C=C/CCC1CCCC(OCC(=O)c2ccc3ccccc3c2)O1 (stereo not drawn)

>  <Stability at pH 2.5>
unstable

$$$$
>  <molecule>
CCCCCCCC1CCC(OCC(=O)c2ccc3ccccc3c2)O1 (stereo not drawn)

>  <Stability at pH 2.5>
unstable

$$$$

Entry CCCCCCCC1CCC(OCC(=O)c2cc3c(cc2C)C(C)(C)C(C)CC3(C)C)O1 (stereo not drawn) — recorded Stability at pH 2.5 = stable
